Test system: Mycobacterium tuberculosis
Experiment: Antitubercular activity against Mycobacterium tuberculosis H37Rv RIF-R2 ATCC 35828 after 5 days
Assay type: functional, organism-based
Settings: H37Rv RIF-R2 ATCC 35828, 120 h
READOUT: IC90

INSERT INTO results (smiles_record, experimental_result) VALUES
  ('COc1ccc(/C=C/C(C)=N/Nc2nc(-c3c(OC)cccc3OC)cs2)cc1OC', '> 25 µM');

// each compound listed below needs its IC90
1. COc1ccc(-c2csc(N/N=C(C)/C=C/c3ccc(OC)c(OC)c3)n2)cc1
2. CO[C@H]1/C=C/O[C@@]2(C)Oc3c(C)c(O)c4c(O)c(c(/C=N/N5CCN(C)CC5)c(O)c4c3C2=O)NC(=O)/C(C)=C\C=C\[C@H](C)[C@H](O)[C@@H](C)[C@@H](O)[C@@H](C)[C@H](OC(C)=O)[C@@H]1C
3. COc1ccc(/C=C/C(C)=N/Nc2nc(-c3ccc(OC)c(OC)c3)cs2)cc1OC

Ans:
1. > 50 µM
2. > 50 µM
3. > 200 µM
